FYI, the data here is from the kinase profiling compilation of Christmann-Franck et al. (2016).

molecular target: TTK (human) (UniProt P33981); assay: KINOMEscan competition binding; details: compound 10.0 µM
Sequence (P33981 whole entry, looked up): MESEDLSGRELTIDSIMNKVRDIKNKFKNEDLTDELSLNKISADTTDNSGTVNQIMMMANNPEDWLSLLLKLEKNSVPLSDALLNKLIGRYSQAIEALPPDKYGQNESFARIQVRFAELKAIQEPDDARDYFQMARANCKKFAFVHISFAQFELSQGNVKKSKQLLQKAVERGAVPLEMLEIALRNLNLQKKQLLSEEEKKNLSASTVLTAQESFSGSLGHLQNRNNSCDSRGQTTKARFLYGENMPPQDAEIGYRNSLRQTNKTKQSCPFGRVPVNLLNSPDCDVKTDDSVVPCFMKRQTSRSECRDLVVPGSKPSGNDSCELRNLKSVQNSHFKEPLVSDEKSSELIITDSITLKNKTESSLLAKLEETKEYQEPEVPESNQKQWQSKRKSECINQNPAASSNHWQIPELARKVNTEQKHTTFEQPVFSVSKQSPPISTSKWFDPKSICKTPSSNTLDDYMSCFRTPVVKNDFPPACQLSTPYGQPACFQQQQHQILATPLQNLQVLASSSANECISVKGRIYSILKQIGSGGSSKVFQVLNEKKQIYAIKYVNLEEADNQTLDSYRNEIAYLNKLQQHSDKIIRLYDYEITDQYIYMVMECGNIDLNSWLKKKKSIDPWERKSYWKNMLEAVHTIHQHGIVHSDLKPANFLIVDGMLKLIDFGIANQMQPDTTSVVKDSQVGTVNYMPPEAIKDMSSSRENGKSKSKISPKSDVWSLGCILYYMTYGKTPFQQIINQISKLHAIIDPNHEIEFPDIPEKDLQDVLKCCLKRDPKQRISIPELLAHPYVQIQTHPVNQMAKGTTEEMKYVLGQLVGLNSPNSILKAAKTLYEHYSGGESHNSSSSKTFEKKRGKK
Recorded kinase still bound, per cent of control values for a group of compounds are listed next.
Please reply with the bare figure in % and do not write the unit itself.

# count of solved cases: 3
mol_smiles: CCN1CCN(Cc2ccc(NC(=O)c3ccc(C)c(/C=C/c4cnc(Nc5cc(N6CCNCC6)nc(C)n5)cn4)c3)cc2C(F)(F)F)CC1
assayed_system: TTK (human) (UniProt P33981)
endpoint: kinase still bound, per cent of control
val: 85
//
mol_smiles: COc1cc(N2CCC(N3CCN(C)CC3)CC2)ccc1Nc1ncc(Cl)c(Nc2ccccc2S(=O)(=O)C(C)C)n1
assayed_system: TTK (human) (UniProt P33981)
endpoint: kinase still bound, per cent of control
val: 0
//
mol_smiles: CCN1CCN(Cc2ccc(NC(=O)c3ccc(C)c(Oc4ccnc5[nH]ccc45)c3)cc2C(F)(F)F)CC1
assayed_system: TTK (human) (UniProt P33981)
endpoint: kinase still bound, per cent of control
val: 24

Field: next compound
Prompt: Entry under review: `CCOc1cc(N2CCC(N3CCCCC3)CC2)ccc1Nc1nc(Nc2ccccc2S(=O)(=O)C(C)C)c2cn[nH]c2n1` . Reported kinase still bound, per cent of control?
Response: 6.5
